- Tested on: Botrytis cinerea
- method: Fungicidal activity, fungi growth rate method, BC
- Type: cell-based
- reportedConditions: Botrytis cinerea; 50 μg/mL; read-out: Fungicidal activity (inhibition) against BC: Botrytis cinerea
Record label 1 whenever inhibition at 50 µg/mL is at 50% or higher; record label 0 when lower.

O=C(NC1CC1)/C(=C/c1ccccc1)NC(=O)c1ccccc1 ... label 0
Cc1snnc1/C=C1\N=C(c2ccccc2)OC1=O ... label 0
CONC(=O)/C(=C/c1csc(C2CCN(C(=O)OC(C)(C)C)CC2)n1)NC(=O)c1ccccc1 ... label 1
CNC(=O)/C(=C/c1csc(C2CCN(C(=O)OC(C)(C)C)CC2)n1)NC(=O)c1ccccc1 ... label 1
CC(C)(C)OC(=O)N1CCC(c2nc(/C=C(\NC(=O)c3ccccc3)C(=O)O)cs2)CC1 ... label 0
CNC(=O)/C(=C/c1ccccc1)NC(=O)c1ccccc1 ... label 0
O=C(N/C(=C\c1ccccc1)C(=O)N1CCOCC1)c1ccccc1 ... label 0
O=C(N/C(=C\c1ccco1)C(=O)N1CCC(O)(c2ccc(Br)cc2)CC1)c1ccccc1 ... label 0
O=C(NC1CCCCC1)/C(=C/c1ccccc1)NC(=O)c1ccccc1 ... label 0
O=C(N/C(=C\c1cccs1)C(=O)N1CCC(O)(c2ccc(Br)cc2)CC1)c1ccccc1 ... label 0
O=C(N/C(=C\c1ccccc1)C(=O)N1CCC(O)(c2ccc(Br)cc2)CC1)c1ccc(F)cc1 ... label 0
O=C(N/C(=C\c1ccccc1)C(=O)N1CCC(O)(c2ccc(Br)cc2)CC1)c1ccccc1 [Compound 76, reference compound] ... label 0
O=C(NCc1ccccc1)/C(=C/c1ccccc1)NC(=O)c1ccccc1 ... label 0

* * *

- Test system: Phytophthora infestans (Mont) de Bary
- method: microbe, parasite or virus in culture
- Type: cell-based
- reportedConditions: Phytophthora infestans, read-out: Fungicidal activity, inhibition, PI
Measured inhibition at 50 µg/mL of individual entries
experimentalEndpoint: inhibition at 50 µg/mL (%)

O=C(NCc1ccc(F)cc1)/C(=C/c1ccccc1)NC(=O)c1ccccc1 ... 19
CC(C)(C)OC(=O)N1CCC(c2nc(/C=C(\NC(=O)c3ccccc3)C(=O)NCc3ccc(Br)cc3)cs2)CC1 ... 20
O=C(N/C(=C\c1ccccc1)C(=O)N1CCC(O)(c2ccc(Br)cc2)CC1)C1CC1 ... 27
O=C(N/C(=C\c1ccccc1)C(=O)N1CCC(O)(c2ccc(Br)cc2)CC1)c1ccc([N+](=O)[O-])cc1 ... 18
O=C(NC1CCCCC1)/C(=C/c1ccccc1)NC(=O)c1ccccc1 ... 11
O=C(NCc1ccc(Cl)cc1)/C(=C/c1ccccc1)NC(=O)c1ccccc1 ... 5
O=C(N/C(=C\c1ccc(Cl)cc1)C(=O)N1CCC(O)(c2ccc(Br)cc2)CC1)c1ccccc1 ... 31
O=C(N/C(=C\c1ccccc1)C(=O)N1CCC(O)(c2ccc(Br)cc2)CC1)C1CCNCC1 ... 11

* * *

- Tested on: wheat Gibberella zeae
- method: microbe, parasite or virus in culture
- Assay type: cell-based
- reportedConditions: Fusarium graminearum, read-out: Fungicidal activity (inhibition) against GZ: wheat Gibberella zeae
experimentalEndpoint: inhibition at 50 µg/mL

O=C(N/C(=C\c1ccccc1)C(=O)N1CCOCC1)c1ccccc1 [Compound 38] ... < 45%
O=C(N/C(=C\c1ccco1)C(=O)N1CCC(O)(c2ccc(Br)cc2)CC1)c1ccccc1 [Compound 25] ... < 45%
Cc1nnsc1/C=C(\NC(=O)c1ccccc1)C(=O)O [Compound 71] ... 86%
O=C(N/C(=C\c1ccccc1)C(=O)N1CCC(O)(c2ccc(Br)cc2)CC1)c1ccccc1 [Compound 76, reference compound] ... 43%
O=C(N/C(=C\c1ccccc1)C(=O)N1CCC(O)CC1)c1ccccc1 [Compound 45] ... < 45%
O=C(NC1CC1)/C(=C/c1ccccc1)NC(=O)c1ccccc1 [Compound 39] ... < 45%
O=C(N/C(=C\c1cccs1)C(=O)N1CCC(O)(c2ccc(Br)cc2)CC1)c1ccccc1 [Compound 24] ... < 45%
O=C(N/C(=C\c1ccccc1)C(=O)N1CCC(O)(c2ccc(Br)cc2)CC1)c1ccc(Cl)cc1 [Compound 7] ... 71%
O=C(NCc1ccccc1)/C(=C/c1ccccc1)NC(=O)c1ccccc1 [Compound 53] ... < 45%
Cc1snnc1/C=C1\N=C(c2ccccc2)OC1=O [Compound 78] ... 57%
O=C(N/C(=C\c1c[nH]cn1)C(=O)N1CCC(O)(c2ccc(Br)cc2)CC1)c1ccccc1 [Compound 26] ... 77%
O=C(NC1CCCCC1)/C(=C/c1ccccc1)NC(=O)c1ccccc1 [Compound 40] ... < 45%
CNC(=O)/C(=C/c1ccccc1)NC(=O)c1ccccc1 [Compound 32] ... < 45%
